# Tested on: IGROV1 ovarian
# procedureText: NCI tumour cell line growth inhibition, 48 h
recordedMetric: TGI

Example cases with answers are listed next.
- molecule: "CC(=O)O[C@H](C[C@H](C(C)C)N(C)C(=O)[C@@H](NC(=O)[C@H]1CCCCN1C)C(C)(C)C)c1nc(C(=O)N[C@@H](Cc2ccccc2)C[C@H](C)C(=O)O)cs1"
  TGI: "> 25 µM"
- molecule: "COc1cc(/C=C\\c2cc(OC)c(OC)c(OC)c2)cc(NS(=O)(=O)c2cccc(Cl)c2)c1OC"
  TGI: "> 100 µM"
- molecule: "CC1=NN(C(=O)c2cc(Cl)cc([N+](=O)[O-])c2)C(=O)C1N=Nc1ccccc1C(=O)O (stereo not drawn)"
  TGI: "> 100 µM"
- molecule: "COC(=O)C[C@H](CCSC)NC(=O)C[C@H](CCSC)NC(=O)C[C@H](CCSC)NC(=O)OC(C)(C)C"
  TGI: "> 100 µM"
- molecule: "C=C(C(=O)OC)[C@H]1CC/C(C)=C/CC/C(C)=C/CC[C@@]2(C)O[C@@H]2C1"
  TGI: "31.5 µM"
- molecule: "CCOC(=O)/C(C#N)=C(N)/C(=N\\Nc1cccc(C(F)(F)F)c1)C(=O)OCC"
  TGI: "> 100 µM"

QUERY: Param readout= TGI; system= IGROV1 ovarian; entry= `CC(=O)Nc1cc2cc(NS(=O)(=O)c3cc(C(F)(F)F)cc(C(F)(F)F)c3)ccc2oc1=O` ; returns value.
RESULT: > 100 µM

QUERY: Param readout= TGI; system= IGROV1 ovarian; entry= CSC1NNC2(C(=O)N1)c1ccccc1-c1ccccc12 (stereo not drawn) ; returns value.
RESULT: > 10 µM

QUERY: Param readout= TGI; system= IGROV1 ovarian; entry= Cc1cccc(C(O)c2cccnc2)c1O (stereo not drawn) ; returns value.
RESULT: > 100 µM

QUERY: Param readout= TGI; system= IGROV1 ovarian; entry= O=C(NC/C=C/Br)NC1CCNc2ccccc21 (stereo not drawn) ; returns value.
RESULT: > 100 µM

QUERY: Param readout= TGI; system= IGROV1 ovarian; entry= CCOC(=O)c1c(-c2ccc(OC)c(O)c2)c(C#N)c(=S)n(C2OC(CO)C(O)C(O)C2O)c1-c1ccccc1 (stereo not drawn) ; returns value.
RESULT: > 100 µM

* * *

# Tested on: SK-MEL-28 melanoma
# procedureText: NCI tumour cell line growth inhibition, 48 h
Listed here are molecules together with their documented TGI.

QUERY: Param readout= TGI; system= SK-MEL-28 melanoma; entry= `C=C1C(=O)O[C@H]2[C@H]([C@H](C)CCCC(C)=O)O[C@H]([C@@]3(C)CCC(=O)O3)C[C@@H]12` ; returns value.
RESULT: > 100 µM

QUERY: Param readout= TGI; system= SK-MEL-28 melanoma; entry= `COC(=O)C[C@H](CCSC)NC(=O)C[C@H](CCSC)NC(=O)C[C@H](CCSC)NC(=O)OC(C)(C)C` ; returns value.
RESULT: > 100 µM

QUERY: Param readout= TGI; system= SK-MEL-28 melanoma; entry= `O=C(O)c1oc2cccc3c2c1CCC3` ; returns value.
RESULT: > 100 µM

QUERY: Param readout= TGI; system= SK-MEL-28 melanoma; entry= `Cc1nn(-c2ccccn2)c2c1C(SC#N)=C(C=O)CC2` ; returns value.
RESULT: 45.9 µM

QUERY: Param readout= TGI; system= SK-MEL-28 melanoma; entry= `O=C(NCCCCNCCCNC(=O)OCc1ccccc1)OCc1ccccc1` ; returns value.
RESULT: 40 µM

QUERY: Param readout= TGI; system= SK-MEL-28 melanoma; entry= `O=C(O)c1cc2c(c3ccsc13)-c1ccccc1CC2` ; returns value.
RESULT: > 100 µM

QUERY: Param readout= TGI; system= SK-MEL-28 melanoma; entry= O=S1(=O)CC(Br)C(Br)C1 (configuration not stated) ; returns value.
RESULT: 13.7 µM
